I'd be grateful if you could share measured selectivity ratio for these entries.
- ASSAY_METHOD_TEXT: Ratio of ED50 of diarrheal effect to antisecretory effect
- Assay type: ADME
- TEST_CONTEXT: read-out: Therapeutic index
Numbers only.

CCCCC(C)(O)C/C=C/[C@H]1[C@H](O)CC(=O)[C@@H]1C/C=C\CCCC(=O)OC (stereo not given in full) ... 27.6
CCCCC[C@](C)(O)/C=C/C1[C@H](O)CC(=O)[C@@H]1C/C=C\CCCC(=O)OC (stereo not given in full) ... 4.2

Provide selectivity ratio for all items below, preserving their order.
1. CCCCC(C)(C)[C@H](O)/C=C/C1[C@H](O)CC(=O)[C@@H]1C/C=C\CCCC(=O)OC (stereo not given in full)
2. CCCCC(C)(O)C/C=C/[C@H]1[C@H](O)CC(=O)[C@@H]1CC/C=C\CCC(=O)OC (stereo not given in full) [ENISOPROST]
3. CCCCC(C)(O)C/C=C/[C@H]1[C@H](O)CC(=O)[C@@H]1CCCCCCC(=O)OC (stereo not given in full) [MISOPROSTOL]

Result:
4.2
208
66.5

Reference for the values: ChEMBL document CHEMBL1122224
